test system: Candida albicans; settings: 20 µM
Description: Antifungal activity against Candida albicans ATCC 90028 (CO-ADD:FG_001); MIC in YNB media using NBS plates, by OD630
Entries with a potency or affinity are not part of this list.
Measured Inhibition accompanies every entry in the list below.
Please report the result as a number followed by the unit.

// known answers, use as guide
1) CCOC(=O)Cc1csc2nc(-c3ccccc3)nn12    3.06%
2) Cc1cc2c(c(C#N)c1C)NC=NC2C (configuration not stated)    -2.89%
3) Cc1nn(-c2ccccc2)c2c1C(c1ccc([N+](=O)[O-])cc1)C(C#N)=C(N)O2 (configuration not stated)    -1.55%
4) c1cncc(-c2nc3ccccc3s2)c1    4.69%
5) Cc1c(Cc2ccccc2)[n+]([O-])c2ccccc2[n+]1[O-]    -1.35%

*Q* Which measured Inhibition value corresponds to CC1=CC2(C)NC(=O)C(C)C12 (configuration not stated) ?
*A* -0.72%

*Q* One more compound: Cc1ccc(Cl)cc1NC(=O)N(C)CCO
*A* 6.98%
